tested.target: human blood AChE (Homo sapiens)
Construct: 90 µL undiluted blood in a 48-wells plate; from tissue; host or cells: venous EDTA whole blood from healthy human donors, lysed and diluted in Triton X-100 buffer
method.summary: AChE inhibition in human donor whole blood (Ellman method)
Type: biochemical
condition: IC50 Value, donor 12
property.measured: IC50 (µM)
Return type: number; implicit unit µM.

// lookup IC50 for Cc1nc(N(C)C)nc(OC(=O)N(C)C)c1C [PI, pirimicarb]
18

====

tested.target: human blood AChE (Homo sapiens, UniProt P22303)
Construct: 90 µL undiluted blood in a 48-wells plate; from tissue; host or cells: venous EDTA whole blood from healthy human donors, lysed and diluted in Triton X-100 buffer
Sequence (P22303 32-617 isoform P22303-2 limits assumed): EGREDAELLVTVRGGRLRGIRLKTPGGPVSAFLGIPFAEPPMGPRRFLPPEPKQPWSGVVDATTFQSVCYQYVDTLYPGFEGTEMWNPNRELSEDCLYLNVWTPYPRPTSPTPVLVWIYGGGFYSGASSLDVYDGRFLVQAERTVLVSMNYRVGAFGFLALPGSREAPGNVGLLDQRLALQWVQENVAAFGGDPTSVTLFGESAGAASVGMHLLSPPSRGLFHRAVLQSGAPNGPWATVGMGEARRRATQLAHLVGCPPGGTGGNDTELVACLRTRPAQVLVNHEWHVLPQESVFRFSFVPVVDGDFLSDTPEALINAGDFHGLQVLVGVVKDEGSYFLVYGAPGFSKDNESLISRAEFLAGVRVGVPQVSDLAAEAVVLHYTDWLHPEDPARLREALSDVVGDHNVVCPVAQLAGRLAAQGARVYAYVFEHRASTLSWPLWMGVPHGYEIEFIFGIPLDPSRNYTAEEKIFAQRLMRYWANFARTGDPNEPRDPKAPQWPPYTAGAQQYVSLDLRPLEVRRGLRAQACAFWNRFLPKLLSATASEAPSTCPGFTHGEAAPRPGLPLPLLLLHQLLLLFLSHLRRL
method.summary: AChE inhibition in human donor whole blood (Ellman method)
Format: biochemical
condition: IC50 Value, donor 6
property.measured: IC50
Mention the unit after the number when you answer.

// lookup IC50 for `Cc1nc(N(C)C)nc(OC(=O)N(C)C)c1C`
24 µM
